Test: Biodistribution in rats
Format: in vivo, male Sprague-Dawley rats
Details: rat, iv, 5 min p.i., mean ± SD, n = 4
Outcome: 1 for muscle uptake of at least 0.2 %ID/g; 0 for anything lower.

Answered cases to consult:
compound="Cn1cc(-c2ccncc2)c(-c2ccc(OCc3cc(COCC[18F])c4ccccc4n3)cc2)n1 [[^18F]18e]" assigned_label=0
compound="Cn1cc(-c2ccncc2)c(-c2ccc(OCc3cc(OCC[18F])c4ccccc4n3)cc2)n1 [[^18F]18d]" assigned_label=1
compound="Cn1cc(-c2ccncc2)c(-c2ccc(OCc3nc4ccccc4cc3OCC[18F])cc2)n1 [[^18F]20a]" assigned_label=0
compound="Cn1cc(-c2ccncc2)c(-c2ccc(OCc3cc(C[18F])c4ccccc4n3)cc2)n1 [[^18F]18b]" assigned_label=1

API: above_or_equal(metric=muscle uptake, cutoff=0.2 %ID/g) for item Cn1cc(-c2ccncc2)c(-c2ccc(OCc3cc(OCCOCCOCC[18F])c4ccccc4n3)cc2)n1 [[^18F]18g] 1

API: above_or_equal(metric=muscle uptake, cutoff=0.2 %ID/g) for item Cn1cc(-c2ccncc2)c(-c2ccc(OCc3cc(CCC[18F])c4ccccc4n3)cc2)n1 [[^18F]18c] 1

API: above_or_equal(metric=muscle uptake, cutoff=0.2 %ID/g) for item Cn1cc(-c2ccncc2)c(-c2ccc(OCc3cc([18F])c4ccccc4n3)cc2)n1 [[^18F]18a] 1
